# ASSAY: soluble on expression in E. coli; label from the status in PepcDB or PDB records
MEASURED_PROPERTY: soluble on expression in E. coli

BIOSEQUENCE	soluble on expression in E. coli
MTKPRYNDVLFDDDDSVPSESVTRKSQRRKATSPGESRESSKDRLLILPSMGESYTEYVDSYLNLELLERGERETPIFLESLTRQLTQKIYELIKTKSLTADTLQQISDKYDGVVAENKLLFLQRQYYVDDEGNVRDGRNNDKIYCEPKHVYDMVMATHLMNKHLRGKTLHSFLFSHFANISHAIIDWVQQFCSKCNKKGKIKPLKEYKR	not soluble
SLKVYSKDEIVEQAKELAKMISETEEVDFFKKAEAQIHKNENVKRAIDEIKALQKQAVNLQHYGKWEALKKVEAEIDALQDKLDSIPVVQEFKSSQTYVNDLLQLVASTISNNVTDEILISTNGDVLKGETGAAVESKKGNCGC	soluble
MFQLSVQDIHPGEKAGDKEEAIRQVAAALVQAGNVAEGYVNGMLAREQQTSTFLGNGIAIPHGTTDTRDQVLKTGVQVFQFPEGVTWGDGQVAYVAIGIAASSDEHLGLLRQLTHVLSDDSVAEQLKSATTAEELRALLMGEKQSEQLKLDNEMLTLDIVASDLLTLQALNAARLKEAGAVDATFVTKAINEQPLNLGQGIWLSDSAEGNLRSAIAVSRAANAFDVDGETAAMLVSVAMNDDQPIAVLKRLADLLLDNKADRLLKADAATLLALLTSDDAPTDDVLSAEFVVRNEHGLHARPGTMLVNTIKQFNSDITVTNLDGTGKPANGRSLMKVVALGVKKGHRLRFTAQGADAEQALKAIGDAIAAGLGEGA	soluble
MSLEDIWHKADELCEKNIKIVIRNLGLNLTISFQCYSHLLQNIPSMLGSIPFQRILSERKNKFDNAIVVSAGPSLTKQLPLLKAYQDKAVVFCADGALSMLEKEGVVPDYVLNIDFEDLPLRFFKNKQNKLSLNILSCATHPSLVHFLDNKSVILRDDPLYQSFNLNDFGYIDTGTHVSHFSYTLALALGFKNIIMIGQDLAFDEEGNSHSKGFDFGEKFEEEHKKYKLKTQAYGGKGEVLTHITWNDYRVKLEYLFACNDQKAKFYNATEGGARINFTEELSFKECCEKLLTKEKPKFELPKSLTKNRSDKLLAKFKEKIQKDQENAKRFLDDEGHHHHHH	soluble
MFDLEKVQTLNELEMLVYHYVLEHLHQIPQQTIRQLATSCHVSTSTILRFCNKMGYAGFSELKYAVKEEAKQTQTFENFYDATVHVDAFLKKLNQETYYEMLRPAIQMIVQARHVAFTGIGTSGILGSYGSRYFANLNINSYSIADPFTPIPKRGFENTLALILSVSGETNEMIKQMTDFKTAGAKVLSITNNQHSTIARLADYNISYYMPDERSPFADKSVNTTTQIPVIALIELLAHQASQLLKELDETPS	not soluble
MAFDDLRSFLQALDDHGQLLKISEEVNAEPDLAAAANATGRIGDGAPALWFDNIRGFTDARVAMNTIGSWQNHAISLGLPPNTPVKKQIDEFIRRWDNFPIAPERRANPAWAQNTVDGEEINLFDILPLFRLNDGDGGFYLDKACVVSRDPLDPDNFGKQNVGIYRMEVKGKRKLGLQPVPMHDIALHLHKAEERGEDLPIAITLGNDPIITLMGATPLKYDQSEYEMAGALRESPYPIATAPLTGFDVPWGSEVILEGVIESRKREIEGPFGEFTGHYSGGRNMTVVRIDKVSYRSKPIFESLYLGMPWTEIDYLLEHHHHHH	not soluble
MSLAYTKKKYTPKTKEQIKEETKEIMDKVLTDITKYYRSPEDMLELANFMAKFSNYSPKNMQLIRSQFENAYACANFKAFKDAGFHVNKGETAMKVFHPYVKEYVRDPRTKLAIPLGKLTEEQKKQVKNGELKVEKQTNYYLKATAFDISQTNAKPEDLPKIFPNRQFNFEINDENKELLKIGIQALAEKENIKIKTMGQGALVKELGNVHGAYVQVLDSSYSQIVMNPRNTETNELSVAIHELAHAKLHGNKIDPLEHTPTKEFEAELTSYIVCKHYGMDTSESAVPYIAQWTKNGQDIEEKDKSIMRVHETASSFINTIDKKISELQREGHHHHHH	soluble
MGNNQSGGPDARYGGPNDKAGLRRHRMMSETAKIAGQVLPNPDGGPPMIFDDGNEDKSGECPVVFRWSFTQNAQPRVVHIVGSWDNWQTRIPMVKSTNDFSTIIDLQPGQYEYKFQVDGSWVVDDNQGKAQDVHGNENNMINIQDSDFAVFEALDEDFQSSTAGEVLRGESESTKNHDTPNDRELEKLRSFTQEIPSMDMLRKAAGPPVIPPQLMQVLLNKETPESCDPNVLPEPNHVMLNHMYALSIKDSVMVLSSTQRYRKKFVTTLLYKPV	not soluble
MSLEKLAASTEPQGPRPVLGRESVQVPDDQDFRSFRSECEAEVGWNLTYSRAGVSVWVQAVEMDRTLHKIKCRMECCDVPAETLYDVLHDIEYRKKWDSNVIETFDIARLTVNADVGYYSWRCPKPLKNRDVITLRSWLPMGADYIIMNYSVKHPKYPPRKDLVRAVSIQTGYLIQSTGPKSCVITYLAQVDPKGSLPKWVVNKSSQFLAPKAMKKMYKACLKYPEWKEGHHHHHH	not soluble
MRPCRTGREQMTDTTMQLLSQGTDHVKVPDFDILAEGKTLSGVAERLMSLSLTDNRGFEADQLTITLDDADGQLQLPPRGARLTVLIGWKGEPLTEKGTCRFNLSMQHPFQLSLSVF	not soluble

Consider the additional sequence presented here.
# soluble on expression in E. coli (sequence: ASCETTVTSGDTMTYSTRSISVPASCAEFTVNFEHKGHMPKTGMGHNWVLAKSADVGDVAKEGAHAGADNNFVTPGDKRVIAFTPIIGGGEKTSVKFKVSALSKDEAYTYFCSYPGHFSMMRGTLKLEE ) is soluble
